I'd appreciate it if you could supply melting point values for the items below.

These solved cases illustrate the format of a correct answer.
compound	reported.endpoint	result
CN1CC=C(c2c[nH]c3ccc(C(=O)O)cc23)CC1	melting point	249 °C
OC(c1ccccc1)C1CCN1C(c1ccccc1)c1ccccc1 (stereo not given)	melting point	87.5 to 88.5 °C
CCCN1C(=O)OC2(CCN(CC=C(c3ccc(F)cc3)c3ccc(F)cc3)CC2)C1(C)O (stereo not given)	melting point	128 to 129 °C
OCCNC(=S)NC1CCc2ccccc2C1 (stereo not given)	melting point	89 to 91 °C

Here are 5 compounds. What values of melting point were reported for them?
1. NS(=O)(=O)c1cccc2cncn12
2. CSc1ccc2c(c1)C(O)Cc1ccc(C)cc1O2 (stereo not given)
3. CCOC(=O)c1cn(-c2ccccc2)nc1OCc1ccc(OCc2nc(-c3ccccc3)oc2C)c(OC)c1
4. CCC1(O)C(C)=CC(=O)N1Cc1ccccc1 (stereo not given)
5. COc1cc(OC)c(-c2nc(C)c(-c3cccnc3)[nH]2)cc1Br

148 to 151 °C
67 to 69 °C
160 to 161 °C
129 to 132 °C
246 to 248 °C

Using the record for COc1cc(-c2nn(C(C)(C)C)c(N)c2C(N)=O)cc(OC)c1OC , report its melting point.
180 to 192 °C

###

I'd appreciate it if you could supply melting point values for the items below.

compound	reported.endpoint	result
FC(F)(F)c1cccc(C(Cl)(Cl)Cl)c1Cl	melting point	32 to 33 °C
Clc1cc(OC(Cl)(Cl)Cl)nc(Cl)n1	melting point	55 to 56 °C
CCc1nnc2c(NC3CCC3)nc3ccccc3n12	melting point	215 to 217 °C
CN(C[C@H]1CC[C@H](c2nc3ccccc3n2C)CC1)C(=O)OCc1ccccc1	melting point	141 to 142 °C
CC(C)Oc1ccc(NC=O)cc1C(F)(F)F	melting point	80 to 82 °C

Here are 6 compounds. What values of melting point were reported for them?
1. N#Cc1c(F)cc(OCc2ccsc2)cc1OC(C(=O)O)c1ccccc1Cl (racemic)
2. Cc1ccccc1Nc1ccccc1C=C(Br)Br
3. COC(=O)C1C=C2c3cccc4[nH]c(C)c(c34)CC2N(C)C1 (stereo unspecified)
4. O=c1cc(-c2ccoc2)c2ccc(S)cc2o1
5. CCCn1c(N)cc(=O)n1-c1ccccc1
6. N#CC1CC2CC2N1C(=O)C(N)C12CC3CC(CC(O)(C3)C1)C2 (stereo unspecified)

["152 to 153 °C", "65 to 67 °C", "154 °C", "167 to 170 °C", "183 to 185 °C", "105 to 108 °C"]

###

I'd appreciate it if you could supply melting point values for the items below.

These solved cases illustrate the format of a correct answer.
compound	melting point
O=C(Cl)c1cc(C#Cc2ccccc2)c(C(=O)Cl)cc1C#Cc1ccccc1	174 to 180 °C
COc1c(C(=O)Nc2ccc(-n3nc(C(F)(F)F)cc3C(F)(F)F)cc2)csc1Cl	119 to 120 °C
CCOC(=O)[C@H]1C2C1[C@](N[C@H](C)c1ccccc1)(C(=O)OCC)C[C@@H]2O (stereo partly drawn)	73 to 74 °C
CC(C)(C)c1cc(-c2c[nH]c(=S)[nH]2)cc(C(C)(C)C)c1O	168 to 170 °C
CCCCc1sc2ccc([N+](=O)[O-])cc2c1C(=O)c1ccc(O)cc1	147 °C

Here are 4 compounds. What values of melting point were reported for them?
1. CCCCCCCCOC(=O)CCP(=O)(CCC(N)=O)Cc1cc(C(C)(C)C)c(O)c(C(C)(C)C)c1 (stereo not drawn)
2. OC1(Cn2cncn2)CCCCC12OC2c1ccc(Cl)cc1 (stereo not drawn)
3. CCC(Oc1ccc(C(C)(C)CC)cc1C(C)(C)CC)C(=O)Nc1cc(O)c(NC(=O)c2ccccc2NS(C)(=O)=O)cc1Cl (stereo not drawn)
4. N#CCCNC(=O)c1cccc(-c2ccc3c(c2)N(c2cc(Cl)cc(Cl)c2)CC3)c1

154 to 157 °C
150 °C
199 to 201 °C
196 to 197 °C

###

I'd appreciate it if you could supply melting point values for the items below.

These solved cases illustrate the format of a correct answer.
compound	result
Cc1c(C(=O)Nc2ccc(N3CCC(N4CCOCC4)CC3)c(C#N)c2)cnn1-c1ccccc1	223 °C
CN1CCN(c2ccc3nc(-c4ccc(F)cc4)c(I)n3n2)CC1	180 °C
O=C(/C=C/c1cccnc1)N1CCN(C(=O)c2cc(C(F)(F)F)cc(C(F)(F)F)c2)[C@H](Cc2c[nH]c3ccccc23)C1	86.5 to 89.5 °C
CCOC(=O)c1cnccc1NC(=O)Cc1c(F)cccc1Cl	114 to 116 °C
CN(C)CCCOc1ccc(C(=O)NN)cc1	79.5 to 81 °C
CNC(=O)Nc1cccc(C(=O)Nc2ccccn2)c1	163 to 164 °C
O=C(Nc1cc(Cl)cc2c(Cl)ccnc12)c1c(Cl)cccc1Cl	201 to 205 °C
Oc1ccc(O)c2cc3ccccc3cc12	167 to 169 °C

Here are 6 compounds. What values of melting point were reported for them?
1. Oc1ccc(OCC(O)CNC2CCN(c3ccc(Cl)cn3)CC2)cc1 (stereo not given)
2. N#Cc1ncn2c(C(F)(F)F)cc(-c3ccncc3)nc12
3. CC1(O)C=CC2C3CCC4=CC(=O)CCC4C3C(c3ccc(-c4ccc(C#N)cc4)cc3)CC21C (stereo not given)
4. COc1ccc(C(=CC#N)c2cc(OC)c(OC)c(OC)c2)cc1N
5. COc1ccc(Cl)cc1C(=O)NC(C)Cc1ccc(CCC(=O)O)cc1 (stereo not given)
6. C1CNCCNCCNCCNCCNC1

["148 to 150 °C", "254 °C", "206 °C", "97 to 99 °C", "125 to 126 °C", "109 to 110 °C"]

Here are 2 compounds. What values of melting point were reported for them?
1. CC(C)(C)c1cc(CCc2ccccc2NC(=O)NC2CCN(Cc3ccc(F)cc3)CC2)cc(C(C)(C)C)c1O
2. COc1ccc2c(c1)c(C(C)=O)cn2C

1: 174 to 175 °C; 2: 167 to 168 °C

###

reported.endpoint: melting point

molecule	result
O=[N+]([O-])C1=C2N(Cc3ccc(Cl)nc3)CCN2C2CCCC1O2 (stereo unspecified)	175 °C
CS(=O)(=O)N(Cc1ccccn1)CC(O)(Cn1cncn1)c1ccc(Cl)cc1Cl (stereo unspecified)	154 to 156 °C
Cc1cc(C#N)cc(C)c1C(=O)CBr	76 °C
Fc1ccccc1Cn1nnc2c(NC3CC3)nccc21	245 to 247 °C
COc1ccc([N+](=O)[O-])c2nccc(Cl)c12	125 to 138 °C
Cc1cc2c(cc1-c1c[nH]c(C=CC(=O)O)c1)C(C)(C)CCC2(C)C	245 to 246 °C

Here are 6 molecules. What values of melting point were reported for them?
1. CC(=O)Nc1ccc(C(=O)NC(=O)N2CCC(Cc3ccc(F)cc3)CC2)cc1
2. COC[C@H](C)N1CCc2sc(Nc3ncc(F)cn3)nc2-c2c[nH]nc21
3. CC12CCC(=O)N1CCCN2C(=O)C(Cl)Cl (stereo unspecified)
4. N#Cc1cc([N+](=O)[O-])c(O)c(O)c1F
5. N#CC(C#N)=C1Sc2cnn(-c3ccccc3)c(=O)c2S1
6. CC(C)OC(=O)c1cc(-n2c(=O)c(F)c(C(F)(F)F)n(C)c2=O)c(F)cc1Cl

156 to 171 °C
249 to 251 °C
144 to 147 °C
154 °C
240 °C
66 to 68 °C

Here are 2 molecules. What values of melting point were reported for them?
1. Clc1ccccc1-c1cnc2nncn2n1
2. C=C(C)CN(CC)c1nc(C)[nH]c2cc(-c3ccccc3)nc1-2

["145 to 148 °C", "148 to 150 °C"]

Here are 4 molecules. What values of melting point were reported for them?
1. CNC(=O)NCCN1CCC(Nc2nc3ccccc3n2Cc2ccc(C)o2)CC1
2. Nc1nc(N)nc(CCC(Cl)(Cl)Cl)n1
3. COc1ccccc1CCNC[C@H](O)COc1ncccc1C#N
4. CCOC(=O)c1c(-c2ccccc2C)c2cc(Cl)ccc2n(C)c1=O

1. 200 °C
2. 187 to 188 °C
3. 97 to 99 °C
4. 113 to 114 °C

Here are 2 molecules. What values of melting point were reported for them?
1. Cc1cc2nc3c4cc(N)ccc4n(CCN(C)C)c3nc2cc1C
2. O=C(O)CC1CCc2c(c3ccccc3n2Cc2ccccc2)C1 (stereo unspecified)

250 to 251 °C
156 to 158 °C

###

I'd appreciate it if you could supply melting point values for the items below.

These solved cases illustrate the format of a correct answer.
compound	result
O=S(=O)(c1[nH]c(-c2ccc(Cl)cc2)c(Br)c1Br)C(F)(F)F	165 to 168 °C
Cc1oc(-c2ccccc2)nc1COc1ccc(COc2nn(Cc3ccccc3)cc2CC(=O)O)cc1	91 to 92 °C

Here are 6 compounds. What values of melting point were reported for them?
1. COc1ccc(C(=O)c2c(Cl)cc(Cl)cc2Cl)cc1Cc1ccc(=O)[nH]n1
2. COC(=O)C=CC=CCS(=O)(=O)c1ccccc1
3. O=C1CC2O/C(=C/C3(C(=O)OCc4ccccc4)C=CC=CC3)CN12 (centres undefined)
4. CSc1nccc(Oc2ccc(NC(=O)c3cc(F)cc(N4CCCC4)c3)c3ccccc23)n1
5. C1=C(c2ccccc2)c2ccccc2C1(Cc1ccncc1)Cc1ccncc1
6. CCN(CC)c1ccc([N+](=O)[O-])c2nnoc12

179 to 180 °C
105 °C
120 to 121 °C
180 to 181 °C
> 250 °C
133 to 136 °C

Using the record for COc1cc2c(cc1OC(C)=O)C1Cc3c(Cl)cc(OC)c(OC(C)=O)c3CN1CC2 (single isomer, unassigned; (-)) , report its melting point.
202 to 203 °C

Each recorded value in this set is attributed to a melting point compilation (Tetko et al.; mined from patent text by program, amines drawn as free bases though some values may be those of a salt).
